Some compounds, each annotated with its measured Fold induction.
# MEASURED_ON: UniProtKB P49881
# Sequence (P49881 whole entry): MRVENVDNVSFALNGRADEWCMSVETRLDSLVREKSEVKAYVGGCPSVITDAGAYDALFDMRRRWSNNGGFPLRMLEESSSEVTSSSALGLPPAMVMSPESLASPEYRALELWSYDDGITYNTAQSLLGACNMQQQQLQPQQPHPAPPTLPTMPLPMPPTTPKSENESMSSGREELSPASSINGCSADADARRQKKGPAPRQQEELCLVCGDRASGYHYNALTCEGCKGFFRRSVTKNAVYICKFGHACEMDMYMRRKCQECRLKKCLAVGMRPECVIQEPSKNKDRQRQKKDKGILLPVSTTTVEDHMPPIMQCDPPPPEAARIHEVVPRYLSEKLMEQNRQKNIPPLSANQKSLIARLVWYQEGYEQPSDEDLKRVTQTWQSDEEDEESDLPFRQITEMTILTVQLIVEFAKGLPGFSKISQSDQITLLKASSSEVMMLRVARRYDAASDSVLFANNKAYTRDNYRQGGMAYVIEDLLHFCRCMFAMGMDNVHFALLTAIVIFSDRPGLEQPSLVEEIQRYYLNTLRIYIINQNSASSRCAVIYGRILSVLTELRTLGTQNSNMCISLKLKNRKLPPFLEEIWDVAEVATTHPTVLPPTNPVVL
# PROCEDURE_DETAILS: Agonist activity against Bombyx mori ecdysone receptor
# Assay type: functional
Number only, no unit.

Answered examples (5):
{"columns": ["COMPOUND", "Fold induction"],
 "data": [
  ["COc1cccc(C(=O)NC2(C(=O)c3ccc(F)c(C)c3)CCCC2)c1C", 487],
  ["CCC(CC)(NC(=O)c1cccc(OC)c1C)C(=O)c1cc(C)cc(C)c1", 1000],
  ["CCC(CC)(NC(=O)c1cccc(OC)c1C)C(=O)c1ccc(OC)cc1", 4],
  ["Cc1ccccc1C(=O)NC(C)(C)C(=O)c1ccccc1", 1],
  ["COc1cccc(C(=O)NC(C)(C)C(=O)c2ccccc2)c1C", 2]
]}

Here's the next entry for you.
Inquiry: Report Fold induction for COc1cccc(C(=O)NC(C)(C(=O)c2ccccc2C)C(C)C)c1C (stereo unspecified) tested on UniProtKB P49881.
Reply text: 452

Measured values drawn from ChEMBL document CHEMBL1136556 for this set.
